system-under-test: CK2A1 (CK2α/β) (Homo sapiens)
measurement-description: CK2 kinase assay, CK2A1 (CK2α/β)
Format: biochemical
condition-context: Table A; read-out: CK2A1 (CK2α/β) (IC50)
Structures can show the parent of a compound that is named as a salt.
endpoint-name: IC50 (nM)

| molecule | system-under-test | IC50 / nM |
| --- | --- | --- |
| N#Cc1cc(Nc2nc(NC3CC3)c3ncc(C#N)n3n2)c(Cl)c(C2CCCC(N3CCOCC3)C2)c1 (racemic) [Example 725] | CK2A1 (CK2α/β) (Homo sapiens) | 1.39 |

A = CC(C)(O)CC(=O)N1CC(N2CCN(c3cc(C#N)cc(Nc4nc(NC5CC5)c5ncc(C#N)n5n4)c3Cl)CC2)C1 [Example 490]
B = CC(C)N(C1CCN(c2cc(C#N)cc(Nc3nc(NC4CC4)c4ncc(C#N)n4n3)c2Cl)CC1)C1CC(=O)N(C)C1 (centres unmarked) [Example 716]
C = CC(F)(F)C(=O)N1CC(N2CCN(c3cc(C#N)cc(Nc4nc(NC5CC5)c5ncc(C#N)n5n4)c3Cl)CC2)C1 [Example 516]
D = CCNc1nc(Nc2cc(C#N)cc(N3CC[C@@H](NC(=O)OC)[C@H](OC(=O)[C@H](N)CC(N)=O)C3)c2Cl)nn2c(C#N)cnc12 [Example 818, hydrochloride]
Challenge: Arrange the 4 molecules by rising IC50, starting with the smallest. Submit the labels in the order that the ranking request calls for.
Response given: A, D, C, B
(A: 0.94 nM, D: 2.49 nM, C: 4.09 nM, B: 32.6 nM)

----------
system-under-test: CK2A1 (CK2α/β) (Homo sapiens)
measurement-description: CK2 kinase assay, CK2A1 (CK2α/β)
Format: biochemical
condition-context: Table A; read-out: CK2A1 (CK2α/β) (IC50)
pIC50: −log10 of the molar value.
endpoint-name: pIC50

Here are 2 compounds together with their reported answers.
| compound | pIC50 |
| --- | --- |
| N#Cc1cc(Nc2nc(NC3CC3)c3ncc(C#N)n3n2)c(Cl)c(N2CC[C@@H](NC(=O)CN3CCOCC3)[C@H](O)C2)c1 (racemic) [Example 183] | 9.19 |
| N#Cc1cc(Nc2nc(NC3CC3)c3ncc(C#N)n3n2)c(Cl)c(C2CN(C3COC3)C2)c1 [Example 358] | 9.06 |

I = CC(c1cc(C#N)cc(Nc2nc(NC3CC3)c3ncc(C#N)n3n2)c1Cl)N1CCN(S(C)(=O)=O)CC1 (racemic) [Example 678]
II = CCNc1nc(Nc2ccc3c(c2)c(C#N)cn3C2CCN([C@H]3COC[C@@H]3O)CC2)nn2c(C#N)cnc12 [Example 827]
Challenge: Return label of the item with the larger pIC50. Candidates: I , II . Field: selected label. Fill in the label of the entry you choose.
Response given: II
(II: 9.12, I: 8.73)

----------
system-under-test: CK2A1 (CK2α/β) (Homo sapiens)
measurement-description: CK2 kinase assay, CK2A1 (CK2α/β)
Assay type: biochemical
condition-context: Table A; read-out: CK2A1 (CK2α/β) (IC50)
pIC50: −log10 of the molar value. Counter-ions that a name gives are not always drawn.
endpoint-name: pIC50

Here are 10 compounds together with their reported answers.
| compound | pIC50 |
| --- | --- |
| N#Cc1cc(CN2CCNCC2)c(Cl)c(Nc2nc(NC3CC3)c3ncc(C#N)n3n2)c1 | 9.12 |
| N#Cc1cc(Nc2nc(NC3CC3)c3ncc(C#N)n3n2)c(Cl)c(N2CCC(NC3(CS(=O)(=O)c4ccccc4)COC3)CC2)c1 (racemic) | 9.00 |
| N#Cc1cc(Nc2nc(NC3CC3)c3ncc(C#N)n3n2)c(Cl)c(N2CCN(CC(F)F)CC2)c1 | 9.18 |
| CC(C)(O)c1cc(C#N)cc(Nc2nc(NC3CC3)c3ncc(C#N)n3n2)c1Cl | 9.39 |
| N#Cc1cnc2c(NC3CC3)nc(Nc3cc(C(F)F)cc(N4CCC(N5CC(F)C5)CC4)c3Cl)nn12 | 8.71 |
| CC(C)(C)CNCc1cc(C#N)cc(Nc2nc(NC3CC3)c3ncc(C#N)n3n2)c1Cl | 8.83 |
| N#Cc1cc(Nc2nc(NC3CC3)c3ncc(C#N)n3n2)c(Cl)c(C(O)C2CCNCC2)c1 (centres unmarked) | 8.57 |
| CC(=O)N1CCC2(CCN(c3cc(C#N)cc(Nc4nc(NC5CC5)c5ncc(C#N)n5n4)c3Cl)CC2)C1 | 8.85 |
| CS(=O)(=O)N1CCN(Cc2cc(C#N)cc(Nc3nc(NC4CC4)c4ncc(C#N)n4n3)c2Cl)CC1 | 9.42 |
| CCNc1nc(Nc2cc(C#N)cc(N3CC[C@@H](NC(=O)OC)[C@H](OC(=O)[C@@H]4CCCN4)C3)c2Cl)nn2c(C#N)cnc12 [Example 813, hydrochloride] | 8.35 |

P = CCOC(=O)C1CCN(c2cc(C(F)F)cc(Nc3nc(NC4CC4)c4ncc(C#N)n4n3)c2Cl)CC1
Q = CCNc1nc(Nc2cc(C#N)cc(N[C@@H]3CCN(C(=O)OC)C[C@H]3O)c2Cl)nn2c(C#N)cnc12
R = C[C@H]1CC(CN2CCN(c3cc(C#N)cc(Nc4nc(NC5CC5)c5ncc(C#N)n5n4)c3Cl)CC2)O1 (some centres unmarked)
S = N#Cc1cc(Nc2nc(NC3CC3)c3ncc(C#N)n3n2)c(Cl)c(C2CCN(CC(F)F)CC2)c1
T = CCNc1nc(Nc2cc(C#N)cc(N3CC[C@@H](NC(=O)OC)[C@@H](NCC(O)C(F)(F)F)C3)c2Cl)nn2c(C#N)cnc12 (some centres unmarked)
Challenge: Arrange the 5 compounds by rising pIC50, starting with the smallest. Submit the labels in the order that the ranking request calls for.
Response given: P, Q, T, R, S

A = COC(=O)N1CCN(Cc2cc(C#N)cc(Nc3nc(NC4CC4)c4ncc(C#N)n4n3)c2Cl)CC1
B = N#Cc1cc(Nc2nc(NC3CC3)c3ncc(C#N)n3n2)c(Cl)c(N2CC[C@@H](NC3COC3)[C@H](O)C2)c1 (racemic) [Example 301, HCl]
Challenge: Return label of the item with the larger pIC50. Candidates: A , B . Field: selected label. Fill in the label of the entry you choose.
Response given: B

1 = COC1CN(CCCc2cc(Cl)c(Nc3nc(NC4CC4)c4ncc(C#N)n4n3)cc2C#N)C1
2 = COCC(O)CN1CCN(c2cc(C(F)F)cc(Nc3nc(NC4CC4)c4ncc(C#N)n4n3)c2Cl)CC1 (racemic)
Challenge: Select the item whose pIC50 value is smaller, choosing between 1 and 2 . Field: selected label. Fill in the label of the entry you choose.
Response given: 1

----------
system-under-test: CK2A1 (CK2α/β) (Homo sapiens, UniProt P68400)
Sequence (P68400 whole entry, species assumed): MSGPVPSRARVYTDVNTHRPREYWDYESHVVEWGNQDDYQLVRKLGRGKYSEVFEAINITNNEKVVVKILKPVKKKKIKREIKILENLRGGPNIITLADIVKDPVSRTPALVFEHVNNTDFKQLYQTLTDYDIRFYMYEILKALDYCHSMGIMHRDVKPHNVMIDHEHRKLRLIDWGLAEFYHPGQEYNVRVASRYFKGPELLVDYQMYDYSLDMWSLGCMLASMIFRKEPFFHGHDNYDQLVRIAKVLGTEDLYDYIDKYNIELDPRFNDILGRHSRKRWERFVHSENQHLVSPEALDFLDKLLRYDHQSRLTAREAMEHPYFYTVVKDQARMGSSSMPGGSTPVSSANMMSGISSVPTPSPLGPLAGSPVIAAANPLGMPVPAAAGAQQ
Sequence (P67870 whole entry partner, species assumed): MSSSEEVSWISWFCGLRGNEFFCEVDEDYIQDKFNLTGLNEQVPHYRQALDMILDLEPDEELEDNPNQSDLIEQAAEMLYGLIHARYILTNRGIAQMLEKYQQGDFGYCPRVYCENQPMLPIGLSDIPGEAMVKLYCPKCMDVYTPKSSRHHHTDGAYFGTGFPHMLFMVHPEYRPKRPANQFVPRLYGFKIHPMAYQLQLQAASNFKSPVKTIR
measurement-description: CK2 kinase assay, CK2A1 (CK2α/β)
Format: biochemical
condition-context: Table A; read-out: CK2A1 (CK2α/β) (IC50)
endpoint-name: IC50 (pM)

a = N#Cc1cc(Nc2nc(NC3CC3)c3ncc(C#N)n3n2)c(Cl)c(N2CC[C@@H](NC(=O)OCCN3CCOCC3)[C@H](O)C2)c1
b = N#Cc1cc(Nc2nc(NC3CC3)c3ncc(C#N)n3n2)c(Cl)c(C2CCN(C3CCC3O)CC2)c1 (single isomer, unassigned) [Example 645]
Challenge: Return label of the item with the larger IC50. Candidates: a , b . Field: selected label. Fill in the label of the entry you choose.
Response given: b
(b: 1750 pM, a: 770 pM)

----------
system-under-test: CK2A1 (CK2α/β) (Homo sapiens)
measurement-description: CK2 kinase assay, CK2A1 (CK2α/β)
Assay type: biochemical
condition-context: Table A; read-out: CK2A1 (CK2α/β) (IC50)
endpoint-name: IC50 (nM)

| compound | endpoint-name | endpoint-value |
| --- | --- | --- |
| N#Cc1cc(Nc2nc(NC3CC3)c3ncc(C#N)n3n2)c(Cl)c(N2CCC3NCCC3C2)c1 (racemic) [Example 442] | IC50 | 0.77 |

A = CN1C[C@H]2C[C@@H]1CN2c1cc(C#N)cc(Nc2nc(NC3CC3)c3ncc(C#N)n3n2)c1Cl [Example 5]
B = N#Cc1cc(Nc2nc(NC3CC3)c3ncc(C#N)n3n2)c(Cl)c(N2CCN(CC3COCCO3)CC2)c1 (stereo not shown) [Example 532]
C = COC(=O)N[C@@H]1CCN(c2cc(C#N)cc(Nc3nc(NC4CC4)c4ncc(C#N)n4n3)c2Cl)C[C@H]1OC(=O)C(C)OP(=O)(O)O (stereo partly shown) [Example 197]
Challenge: List from greatest to least IC50. Submit the labels in the order that the ranking request calls for.
Response given: C, B, A

1 = N#Cc1cc(NC(=O)CN2CCOCC2)c(Cl)c(Nc2nc(NC3CC3)c3ncc(C#N)n3n2)c1 [Example 621]
2 = CCNc1nc(Nc2cc(C#N)cc(N3CC[C@@H]4[C@@H](C3)OC(=O)N4C3CCOCC3)c2Cl)nn2c(C#N)cnc12 [Example 845]
Challenge: Select the item whose IC50 value is smaller, choosing between 1 and 2 . Field: selected label. Fill in the label of the entry you choose.
Response given: 2
